molecular target: UniProt P20292; assay: FLAP binding assay (HTRF format); conditions: wild type FLAP, HTRF format
Sequence (P20292 whole entry): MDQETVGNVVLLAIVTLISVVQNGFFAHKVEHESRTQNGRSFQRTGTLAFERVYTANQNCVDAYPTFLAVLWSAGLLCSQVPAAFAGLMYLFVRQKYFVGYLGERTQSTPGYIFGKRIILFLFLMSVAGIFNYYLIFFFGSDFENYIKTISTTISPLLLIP
Structures can show the parent of a compound that is named as a salt.
Assign log10 of Ki to each entry below.
Form field - Quantity: Ki; Unit: nM; Scale: log10

Prompt: If you can, please state the reported log10 of Ki value of CC(C)(C)NS(=O)(=O)c1ccccc1-c1ccc(-c2cnc(N)c(N)n2)c(F)c1 .
Response: 0.60

Prompt: If you can, please state the reported log10 of Ki value of N#Cc1ncc(-c2ccccc2-c2ccc(-c3cnc(N)cn3)c(F)c2)cn1 .
Response: 1.55

Prompt: If you can, please state the reported log10 of Ki value of Nc1ncc(-c2ccc(-c3ccc(C(F)(F)F)cc3C(=O)N3CCC(O)CC3)cc2F)cn1 .
Response: 2.59

Prompt: If you can, please state the reported log10 of Ki value of C[C@@H](NC(=O)c1cc(C(F)(F)F)ccc1-c1ccc(-c2cnc(N)cn2)c(F)c1)C(F)(F)F .
Response: 0.96

Prompt: If you can, please state the reported log10 of Ki value of CC(C)(C)NS(=O)(=O)c1ccccc1-c1ccc(-c2cnc(N)cc2C#N)c(F)c1 .
Response: 2.49

Prompt: If you can, please state the reported log10 of Ki value of Nc1cnc(-c2ccc(-c3ccccc3Oc3cc(C4CC4)ncn3)cc2F)cn1 .
Response: 0.66

Prompt: If you can, please state the reported log10 of Ki value of Nc1ncc(-c2ccc(-c3ccccc3S(=O)(=O)N3CCCCCC3)cn2)cn1 [Example 681, trifluoroacetic acid salt] .
Response: 1.72

Prompt: If you can, please state the reported log10 of Ki value of N#Cc1cc(C(F)(F)F)ccc1-c1ccc(-c2cnc(N)cn2)c(F)c1 .
Response: 1.30

Prompt: If you can, please state the reported log10 of Ki value of Nc1cc(Oc2cc(C(F)(F)F)ccc2-c2ccc(-c3cnc(N)nc3)c(F)c2)ncn1 .
Response: 0.60

Prompt: If you can, please state the reported log10 of Ki value of CC(C)(C)NS(=O)(=O)c1ccccc1-c1ccc(-c2ccn3cnnc3c2)c(F)c1 .
Response: 2.26

Prompt: If you can, please state the reported log10 of Ki value of CC(C)S(=O)(=O)c1ncccc1-c1ccc(-c2cnc(N)cn2)c(F)c1 .
Response: 0.95

Prompt: If you can, please state the reported log10 of Ki value of Nc1ncc(-c2ccc(-c3ccccc3-c3cnccn3)cc2F)cn1 .
Response: 2.92

Each recorded value in this set is attributed to patent US9079866B2.
